- System Under Test: T1, RSV F B N208D (RSV B)
- T1 construct: whole, on cells
- Test: FACS, % binding to RSV F B variants
Measurement Type: % binding
Answer format reminder: number followed by unit.

MPK201-v1.2 (antibody, V domains shown) VH: EVQLVQSGAEVKKPGESLKISCQGSGYSFINYWIGWVRQKPGKGLEWMGIIYPFDSETKYSPSFQGHVTFSADKSINTAYVQWSSLRASDTAMYYCARFTFGLAVTTADVSGEGQAFEIWGQGTMVTVSS VL: QIVMMQSPATLSVSPGERATLSCRASQSVAGNLAWYQQRPGQAPRLLVYGASTRASGVPARFSGSGSETEFTLTISSLQSEDFAVYYCHHYSDLPQAFGQGTRLDIK	0.015%

Switching to the query record.
(Q) Kindly indicate its recorded % binding. Item: MPK201-v4.1 (antibody, V domains shown) VH: QVQLVQSGAEVKKPGESLKISCQGSGYSFISYWIGWVRQKPGKGLEWMGIIYPFDSETKYSPSFQGHVTFSADKSINTAYVQWSSLRASDTAMYYCARFTFGLAVTTADVSGEGQAFEIWGQGTMVTVSS VL: EIVMMQSPATLSVSPGERATLSCRASQSVAGNLAWYQQRPGQAPRLLVYGASTRASGVPARFSGSGSETEFTLTISSLQSEDFAVYYCHHYSDWPQAFGQGTRLDIK
(A) 0.018%
